From: patent US8865703B2

Target: B-Raf (V600E)-kinase (Homo sapiens, UniProt P15056, V600E)
Sequence (P15056 whole entry V600E): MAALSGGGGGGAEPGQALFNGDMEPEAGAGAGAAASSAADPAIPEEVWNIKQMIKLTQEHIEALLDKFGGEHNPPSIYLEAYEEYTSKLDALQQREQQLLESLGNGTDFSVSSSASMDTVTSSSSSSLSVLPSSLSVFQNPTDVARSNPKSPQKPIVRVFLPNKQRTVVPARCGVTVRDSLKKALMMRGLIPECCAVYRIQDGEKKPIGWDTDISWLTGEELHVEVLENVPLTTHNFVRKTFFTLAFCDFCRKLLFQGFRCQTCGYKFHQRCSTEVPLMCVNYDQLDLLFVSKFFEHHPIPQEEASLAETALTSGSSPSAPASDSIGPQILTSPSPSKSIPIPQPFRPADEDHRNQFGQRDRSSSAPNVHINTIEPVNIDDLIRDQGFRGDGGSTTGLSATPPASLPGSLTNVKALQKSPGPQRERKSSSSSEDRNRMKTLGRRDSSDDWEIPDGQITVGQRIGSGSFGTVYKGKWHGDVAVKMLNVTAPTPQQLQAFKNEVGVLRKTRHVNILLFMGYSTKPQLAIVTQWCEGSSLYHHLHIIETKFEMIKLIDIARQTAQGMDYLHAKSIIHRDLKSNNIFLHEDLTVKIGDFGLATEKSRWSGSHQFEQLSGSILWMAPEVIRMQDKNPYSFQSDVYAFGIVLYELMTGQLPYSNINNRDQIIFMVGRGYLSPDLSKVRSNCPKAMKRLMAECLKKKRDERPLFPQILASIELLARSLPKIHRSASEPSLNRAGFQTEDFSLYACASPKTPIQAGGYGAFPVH
Experiment: Kinase test B-Raf (V600E)
Conditions: 1 h incubation with kinase before start, 250 μM ATP, biotinylated MEK1 substrate

| STRUCTURE SMILES | UNIT OF MEASUREMENT | IC50 |
| --- | --- | --- |
| CCOCCN1CCN(c2cncc(-c3cn(-c4cc(NC(=O)c5cc(C)n(C(C)(C)C)n5)cnc4C)nn3)c2)CC1 | nM | 16 |
| CCCN1CCN(c2cncc(-c3cn(-c4cc(NC(=O)c5cc(CC)n(C(C)(C)C)n5)cnc4C)nn3)c2)CC1 | nM | 7 |
| Cc1ncc(NC(=O)c2cc(C(C)C)n(C(C)(C)C)n2)cc1-n1cc(-c2cncc(N3CCN(C)CC3)c2)nn1 | nM | 17 |
| Cc1ncc(NC(=O)c2ccc(C(C)(C)C)s2)cc1-n1cc(-c2cncc(N3CCN(C(C)(C)C)CC3)c2)nn1 | nM | 6 |
| Cc1ncc(NC(=O)c2cc(C)n(C(C)(C)C)n2)cc1-n1cc(-c2cncc(N3CCN(C)CC3)c2)nn1 | nM | 8 |
| CCCN1CCN(c2cncc(-c3cn(-c4cc(NC(=O)c5cc(C)n(C(C)(C)C)n5)cnc4C)nn3)c2)CC1 | nM | 10 |
| Cc1ncc(NC(=O)c2cc(C)n(C(C)(C)C)n2)cc1-n1cc(-c2cncc(N3CCN(CCOC(C)C)CC3)c2)nn1 | nM | 16 |
| CCc1cc(C(=O)Nc2cnc(C)c(-n3cc(-c4cncc(N5CCN(C(C)C)CC5)c4)nn3)c2)nn1C(C)(C)C | nM | 12 |
| Cc1ncc(NC(=O)c2cc(C)n(C(C)(C)C)n2)cc1-n1cc(-c2cncc(N3CCN(C(C)C)CC3)c2)nn1 | nM | 8 |
